Target: elastase from human neutrophil (Homo sapiens, UniProt P08246)
Construct: elastase from human neutrophil
Sequence (P08246 30-247 limits assumed): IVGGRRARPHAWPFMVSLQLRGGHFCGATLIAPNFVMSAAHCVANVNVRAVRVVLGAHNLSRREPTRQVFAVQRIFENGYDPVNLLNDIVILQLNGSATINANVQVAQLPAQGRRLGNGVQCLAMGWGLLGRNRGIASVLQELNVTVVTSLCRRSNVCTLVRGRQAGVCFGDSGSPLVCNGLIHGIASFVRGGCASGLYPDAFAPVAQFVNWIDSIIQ
Assay: Inhibitory effect on elastase (spectrophotometric, Suc-Ala-Pro-Ala-pNA substrate)
Conditions: 1 mM Suc-Ala-Pro-Ala-pNA, tris-hydrochloric acid pH 8.0, 37° C. for 30 minutes, absorbance 405 nm
pIC50: −log10 of the molar value.
Cut-off 7 on pIC50, inclusive. At or above means met; below means not met.

Q: For this molecule, is measured pIC50 7 or higher? Cc1cc(S(=O)(=O)Nc2ccccc2C(=O)N[C@@H](Cc2ccccc2)C(=O)O)ccc1OC(=O)C(C)(C)C [2(67)]
Result: not met

New cases:
Q: Entry Cc1cc(S(=O)(=O)Nc2ccccc2OCCCC(=O)O)ccc1OC(=O)C(C)(C)C [2(51)] : is its pIC50 no less than 7?
Result: not met

* * *

Target: elastase from human neutrophil (Homo sapiens)
Construct: elastase from human neutrophil
Experiment: Inhibitory effect on elastase (spectrophotometric, Suc-Ala-Pro-Ala-pNA substrate)
Conditions: 1 mM Suc-Ala-Pro-Ala-pNA, tris-hydrochloric acid pH 8.0, 37° C. for 30 minutes, absorbance 405 nm
pIC50: −log10 of the molar value. Structures can show the parent of a compound that is named as a salt.
Record satisfied whenever pIC50 is at 7 or higher; record not satisfied when lower.

Look over these answered cases.
Q: Has Cc1cc(S(=O)(=O)Nc2ccccc2C(=O)N[C@@H](CCCCN)C(=O)O)ccc1OC(=O)C(C)(C)C [2(69), hydrochloride] a recorded pIC50 greater than or equal to 7?
Result: not satisfied

Q: Has CC(C)(C)C(=O)Oc1ccc(S(=O)(=O)Nc2ccccn2)cc1 a recorded pIC50 greater than or equal to 7?
Result: not satisfied

Q: Record CC(C)(C)C(=O)Oc1ccc(S(N)(=O)=O)cc1 ; criterion: pIC50 no lower than 7. Met?
Result: not satisfied

Q: For this compound, is measured pIC50 7 or higher? CC(=O)Oc1ccc(N(S(=O)(=O)c2ccc(OC(=O)C(C)(C)C)cc2)S(=O)(=O)c2ccc(OC(=O)C(C)(C)C)cc2)cc1
Result: satisfied

Q: Given Cc1cc(S(=O)(=O)Nc2ccccc2C(=O)N2CCC[C@H]2C(=O)O)ccc1OC(=O)C(C)(C)C , state whether its pIC50 is at least 7.
Result: not satisfied

Switching to the query record.
Q: // inclusive: pIC50 at least 7? input: CC(C)(C)C(=O)Oc1ccc(S(=O)(=O)Nc2ccc(Cl)cc2)cc1
Result: satisfied

* * *

Biological target: elastase from human neutrophil (Homo sapiens)
Construct: elastase from human neutrophil
Experiment: Inhibitory effect on elastase (spectrophotometric, Suc-Ala-Pro-Ala-pNA substrate)
Conditions: 1 mM Suc-Ala-Pro-Ala-pNA, tris-hydrochloric acid pH 8.0, 37° C. for 30 minutes, absorbance 405 nm
OBSERVABLE: IC50
Remember to follow the number with its unit.

Example entries and their recorded answers appear below.
Q: Please give the measured IC50 for this molecule: CCN(CC)C(=O)COC(=O)c1ccccc1NS(=O)(=O)c1ccc(OC(=O)C(C)(C)C)c(C)c1
Result: 0.072 µM

Q: May I ask what IC50 has been recorded for Cc1cc(S(=O)(=O)Nc2cccc3c2OC(C(=O)O)CO3)ccc1OC(=O)C(C)(C)C (centres unmarked) ?
Result: 0.15 µM

Q: What does the record list as IC50 for CC(C)(C)C(=O)Oc1ccc(S(=O)(=O)NCCc2ccccc2)cc1 ?
Result: 0.072 µM

Further cases:
Q: GET /values?readout=IC50&item= CC(C)(C)C(=O)Oc1ccc(S(=O)(=O)n2ccnc2)cc1
Result: 0.05 µM

Q: // IC50 lookup, key: CN(c1ccc(Br)cc1)S(=O)(=O)c1ccc(OC(=O)C(C)(C)C)cc1
Result: 0.031 µM

Q: Give the measured IC50 of CSCCC(NC(=O)c1ccccc1NS(=O)(=O)c1ccc(OC(=O)C(C)(C)C)c(C)c1)C(=O)O (racemic) .
Result: 0.2 µM

Q: # IC50 lookup, item CC(C)(C)C(=O)Oc1ccc(S(=O)(=O)NC2CCCCC2)cc1
Result: 0.042 µM

Q: Which IC50 value is on record for CC(C)(C)NS(=O)(=O)c1ccc(OC(=O)C(C)(C)C)cc1 ?
Result: 0.053 µM

Q: I'd like to know its IC50. The molecule in question is CSc1ccc(NS(=O)(=O)c2ccc(OC(=O)C(C)(C)C)cc2)c(C(=O)NCC(=O)O)c1
Result: 0.021 µM

Q: Tell me the measured IC50 of CCCSc1ccc(NS(=O)(=O)c2ccc(OC(=O)C(C)(C)C)cc2)c(C(=O)NCC(=O)O)c1 , please.
Result: 0.024 µM

Q: Requested read-out: IC50. Entry: CC(C)(C)C(=O)Oc1ccc(S(=O)(=O)Nc2ccccc2C(=O)O)cc1
Result: 0.023 µM
